target: Heat shock factor protein 1 (Mus musculus, UniProt P38532); test: decrease of HSF1-responsive luciferase luminescence – cell-based, NIH3T3, dose retest, confirmation (AID 2382); format: functional;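 note: NIH3T3 fibroblasts with HSF1-driven luciferase reporter stressed by proteasome inhibitor MG132; luminescence from HSF1-driven luciferase expression after 8 hours of MG132 stress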
Sequence (P38532 whole entry): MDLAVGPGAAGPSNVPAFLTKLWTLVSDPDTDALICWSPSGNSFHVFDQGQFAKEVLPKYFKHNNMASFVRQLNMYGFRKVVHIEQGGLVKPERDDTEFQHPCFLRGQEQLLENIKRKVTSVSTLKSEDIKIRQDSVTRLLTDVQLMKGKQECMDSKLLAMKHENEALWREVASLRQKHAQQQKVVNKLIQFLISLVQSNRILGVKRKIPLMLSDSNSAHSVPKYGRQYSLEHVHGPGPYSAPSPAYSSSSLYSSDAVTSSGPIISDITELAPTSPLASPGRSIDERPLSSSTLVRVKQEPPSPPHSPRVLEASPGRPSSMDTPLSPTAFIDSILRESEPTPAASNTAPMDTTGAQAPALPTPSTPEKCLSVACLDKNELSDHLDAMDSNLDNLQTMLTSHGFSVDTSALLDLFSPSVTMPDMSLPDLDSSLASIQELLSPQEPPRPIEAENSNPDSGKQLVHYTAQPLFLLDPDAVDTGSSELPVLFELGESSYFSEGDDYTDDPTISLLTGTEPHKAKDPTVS
The source made the active and inactive calls.
Known EC50 of a selection of molecules
property: EC50

- Cc1ccc(C(=O)Nc2cccc(C(F)(F)F)c2)cc1NC(=O)c1ccno1: 0.333 µM (active)
- CCCCn1c(N)nc2ccccc21: > 195 µM (not active)
- Cc1ccc(N(CC(=O)NC2CCCCC2)C(=O)CNC(=O)c2ccco2)c(C)c1: > 195 µM (not active)
- CN(C)c1ccc(NS(=O)(=O)c2cc(Cl)ccc2Cl)cc1: > 195 µM (not active)
- CCOc1ccc(N(CC(=O)NC2CCCCC2)C(=O)CCC(=O)Nc2nc(C)cs2)cc1: > 195 µM (not active)

###

AC50 tested on Cytochrome P450 2C9 (Homo sapiens, UniProt P11712): recorded values
Sequence (P11712 whole entry): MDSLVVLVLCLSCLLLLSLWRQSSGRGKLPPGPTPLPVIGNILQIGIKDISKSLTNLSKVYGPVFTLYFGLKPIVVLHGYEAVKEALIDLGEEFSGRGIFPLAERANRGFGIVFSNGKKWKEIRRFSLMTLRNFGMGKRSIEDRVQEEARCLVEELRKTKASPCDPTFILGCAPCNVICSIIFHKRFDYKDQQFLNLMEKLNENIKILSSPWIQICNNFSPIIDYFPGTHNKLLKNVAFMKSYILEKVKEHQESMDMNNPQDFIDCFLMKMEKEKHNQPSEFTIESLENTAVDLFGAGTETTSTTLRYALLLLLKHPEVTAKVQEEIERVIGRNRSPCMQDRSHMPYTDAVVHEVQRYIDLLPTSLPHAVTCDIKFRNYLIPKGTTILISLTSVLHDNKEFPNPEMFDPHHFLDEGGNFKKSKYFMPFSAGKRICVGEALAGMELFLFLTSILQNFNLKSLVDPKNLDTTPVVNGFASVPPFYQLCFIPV
property: AC50

* Cc1ccc(-n2c(C)cc(C(=O)CSc3n[nH]c(N)n3)c2C)cc1 | 6.31 µM (inconclusive)
* Sc1nnc(C2CCCCC2)n1/N=C/c1cccs1 | 31.6 µM (inconclusive)
* CC(C)=C[C@H]1[C@@H](C(=O)OCc2cc3c(cc2Cl)OCO3)C1(C)C | 3.16 µM (inconclusive)
* CC(=O)OC[C@@H]1O[C@H](CCO/N=C(\C)CCN2CCc3nc(-c4ccccc4)c(-c4ccccc4)cc3C2)C=C[C@@H]1OC(C)=O | 3.16 µM (inconclusive)
* C=CCN1C(=O)CN=C1Nc1ccccc1 | 0.0708 µM (inconclusive)

###

Known EC50 of a selection of molecules
biological target: Streptokinase A (Streptococcus pyogenes serotype M1); experiment: viability-normalized secreted streptokinase activity reduction – plasminogen activation absorbance, OD405, dose response (AID 1914); assay type: functional, Streptococcus pyogenes M1 GAS;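 note: secreted streptokinase activity via plasminogen activation per viability signal from cell pellet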
Sequence (P10520 whole entry): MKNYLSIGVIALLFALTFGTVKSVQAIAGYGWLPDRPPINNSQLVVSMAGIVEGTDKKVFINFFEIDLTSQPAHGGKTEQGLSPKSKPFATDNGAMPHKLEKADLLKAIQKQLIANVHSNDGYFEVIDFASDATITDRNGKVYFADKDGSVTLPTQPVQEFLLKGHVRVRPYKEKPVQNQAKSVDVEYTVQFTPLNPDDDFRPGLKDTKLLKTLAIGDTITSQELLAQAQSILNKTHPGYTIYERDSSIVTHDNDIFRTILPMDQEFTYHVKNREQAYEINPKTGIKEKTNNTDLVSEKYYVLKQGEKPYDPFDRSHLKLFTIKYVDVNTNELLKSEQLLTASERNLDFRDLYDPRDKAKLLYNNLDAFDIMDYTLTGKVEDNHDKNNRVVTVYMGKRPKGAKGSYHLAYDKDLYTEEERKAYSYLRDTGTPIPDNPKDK
The source made the active and inactive calls.
property: EC50

* NS(=O)(=O)c1ccc(-c2ccc(/C=C3\SC(=S)N(C4CCS(=O)(=O)C4)C3=O)o2)cc1 (stereo not given) | > 150 µM (not active)
* COc1ccc(C(=O)Nc2cccc(-c3ccc(N4CCOCC4)nn3)c2)cc1 | > 150 µM (not active)
* C/C(=N\NC(=O)c1nnn(-c2nonc2N)c1CN(C)c1ccccc1)c1ccccc1O | > 150 µM (not active)
* CCCC/N=C1\C(=O)N(C)c2cccc3c(O)c4ccccc4c1c23 | 21.4 µM (active)
* CCCCn1c(SCC(=O)c2ccccc2)nc2c1c(=O)[nH]c(=O)n2C | > 150 µM (not active)
* O=C(Nc1ccc(-c2csc(Nc3ccc(Cl)cc3)n2)cc1)c1cc([N+](=O)[O-])cc(C(F)(F)F)c1 | > 150 µM (not active)
* O=C(NC(=S)Nc1ccc(Cl)cn1)C(c1ccccc1)c1ccccc1 | > 150 µM (not active)
* Cc1ccc(S(=O)(=O)N(C)CC(=O)N2CC(C)OC(C)C2)cc1 (stereo not given) | > 150 µM (not active)
* CCC1(C)Cc2ccccc2-c2c1c(=O)n(Cc1ccccc1)c1nnnn21 (stereo not given) | 4.04 µM (active)
* Cc1ccccc1/C=C/C(=O)c1ccc([N+](=O)[O-])o1 | 50.9 µM (inconclusive)

###

Known IC50 of a selection of compounds
Biological target: Carboxy-terminal domain RNA polymerase II polypeptide A small phosphatase 1 (Homo sapiens, UniProt Q9GZU7)
Sequence (Q9GZU7 whole entry): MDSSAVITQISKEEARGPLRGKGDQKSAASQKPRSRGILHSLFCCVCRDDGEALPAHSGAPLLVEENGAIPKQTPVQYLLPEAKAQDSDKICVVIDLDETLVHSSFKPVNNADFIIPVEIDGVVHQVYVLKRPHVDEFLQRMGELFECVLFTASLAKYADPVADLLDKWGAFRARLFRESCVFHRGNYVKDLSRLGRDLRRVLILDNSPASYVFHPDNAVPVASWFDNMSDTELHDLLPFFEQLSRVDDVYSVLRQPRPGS
Assay: CTDSP1 inhibitors, concentration-response, biochemical, absorbance readout, ultra-high-throughput screen actives (AID 540297)
Format: functional
Calls of active or inactive are those of the source.
property: IC50

* CCN(CC)S(=O)(=O)c1ccc(C(=O)OCC(=O)NCc2ccco2)cc1 | 11.1 µM (active)
* O=C(COC(=O)c1ccccc1NCCO)Nc1cccc(S(=O)(=O)NC2=NCCCCC2)c1 | 10.2 µM (active)
* Cc1ccc(O)c(C(=O)c2cnn(C(=O)COc3ccc(Cl)cc3)c2)c1 | 3.89 µM (active)
* O=C(OCc1cc(=O)n2c(n1)sc1ccccc12)c1cccc(O)c1 | 3.87 µM (active)
* COc1ccc(S(=O)(=O)c2cnc(S)nc2O)cc1Cl | 8.64 µM (active)
* COCCN(C(=O)Cn1nnc2ccccc21)C(C(=O)NC1CCCCC1)c1ccc(OC)cc1OC (centres undefined) | 14.9 µM (active)
* CCNc1nc(NCC)n2c(SCC(=O)Nc3cccc(Cl)c3)nnc2n1 | 16.2 µM (active)
* Cc1cc(C(=O)NCc2ccc(C(=O)O)o2)c(C)o1 | 4.04 µM (active)
* CCS(=O)(=O)C1=NN2C(=N)/C(=C\c3ccc(OCCOc4cccc(OC)c4)c(OC)c3)C(=O)N=C2S1 | 4.26 µM (active)

###

AC50 tested on Cytochrome P450 3A4 (Homo sapiens, UniProt P08684): recorded values;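 note: CYP3A4 tested as one member of a cytochrome P450 panel screen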
Sequence (P08684 whole entry): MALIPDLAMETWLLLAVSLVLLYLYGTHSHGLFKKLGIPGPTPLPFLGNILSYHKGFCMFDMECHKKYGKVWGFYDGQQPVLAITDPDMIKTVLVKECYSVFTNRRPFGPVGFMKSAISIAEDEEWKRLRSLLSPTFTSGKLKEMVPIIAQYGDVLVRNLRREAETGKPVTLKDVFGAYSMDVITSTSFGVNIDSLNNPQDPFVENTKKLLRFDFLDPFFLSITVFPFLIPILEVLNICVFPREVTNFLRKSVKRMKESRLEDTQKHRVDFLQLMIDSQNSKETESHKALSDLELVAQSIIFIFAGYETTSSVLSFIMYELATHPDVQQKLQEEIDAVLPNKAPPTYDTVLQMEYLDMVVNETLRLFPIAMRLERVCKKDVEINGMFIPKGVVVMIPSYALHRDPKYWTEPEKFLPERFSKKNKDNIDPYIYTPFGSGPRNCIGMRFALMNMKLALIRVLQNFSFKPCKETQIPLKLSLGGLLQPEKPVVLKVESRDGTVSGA
property: AC50

• CCNc1ncc2ncc(=O)n(CCc3ccccc3)c2n1 = 15.8 µM (inconclusive)
• N#Cc1nc(-c2ccc(OCc3ccccc3)cc2)oc1NCCN1CCOCC1 = 3.98 µM (inconclusive)
• C/C(=N\O)c1ccc2[nH]ccc2c1 = 22.4 µM (inconclusive)
• FC(F)(F)c1cccc(NC(=S)Nc2cccc(Cl)c2)c1 = 25.1 µM (inconclusive)
• CSc1cccc(NC(=O)Cn2cccc2)c1 = 22.4 µM (inconclusive)
• CC1(C(=O)CSc2nc3ccccc3s2)CCC(=O)O1 (configuration not stated) = 14.1 µM (inconclusive)
• CC(=O)OC[C@@H]1O[C@H](CCO/N=C(\C)CCN2CCc3nc(-c4ccccc4)c(-c4ccccc4)cc3C2)C=C[C@@H]1OC(C)=O = 3.98 µM (inconclusive)
• O=C(Nc1cccc(F)c1)N1CC[C@@]2(CCCN(C(=O)c3cccc(F)c3)C2)C1 = 15.8 µM (inconclusive)
• COc1ccc(-n2c(SC)nc(O)c(Cc3ccccc3)c2=O)cc1 = 22.4 µM (inconclusive)
• Cc1nn(-c2ccccc2)c(N2CCCCC2)c1/C=N/O = 14.1 µM (inconclusive)
• N#Cc1cccc(NC(=O)N2CCCC3(CCN(C(=O)c4csnn4)CC3)C2)c1 = 15.8 µM (inconclusive)
• COc1ccc(Cc2nnc(O)c3ccccc23)cc1OC = 22.4 µM (inconclusive)
• COc1ccc(NC(=O)N2CC[C@@]3(CCCN(C(=O)Oc4ccccc4)C3)C2)cc1 = 39.8 µM (inconclusive)
• Cn1c(=O)c(CCc2ccccc2)nc2cnc(N3CCNCC3)nc21 = 0.0251 µM (inconclusive)
• COC(=O)C(NC(=O)c1ccccc1)=C1C=C(C)OC(C)=C1 = 22.4 µM (inconclusive)
• CC1=CC(=C2C(=O)c3ccccc3C2=O)C=C(C)O1 = 14.1 µM (inconclusive)
• COCCn1c(=O)c(-c2ccccc2)nc2cnc(Oc3ccccc3)nc21 = 31.6 µM (inconclusive)

###

AC50 tested on Cytochrome P450 2C9 (Homo sapiens): recorded values
property: AC50

- COc1ccc(CN2CCN(C(=O)CC(C)C)CC2)c(OC)c1OC: inconclusive
- FC(F)(F)c1cccc(NC(=S)Nc2cccc(Cl)c2)c1: inconclusive
- COc1cccc2cc(NC(=O)C3CCCCC3)c(=O)oc12: inconclusive
- O=C(c1sc2ccccc2c1Cl)N1CCN(c2ccc(F)cc2)CC1: inconclusive
- CCCCNC(=O)Cc1coc2ccc3ccccc3c12: inconclusive
- Cc1noc(C)c1-c1nccc(NC2CC2)n1: inconclusive

###

biological target: DNA repair and recombination protein RAD54-like (Homo sapiens); test: RAD54 Holliday junction migration blockers – biochemical, fluorescence, cherry-picked samples, dose series, confirmation (AID 651657); format: functional
Sequence (Q92698 whole entry): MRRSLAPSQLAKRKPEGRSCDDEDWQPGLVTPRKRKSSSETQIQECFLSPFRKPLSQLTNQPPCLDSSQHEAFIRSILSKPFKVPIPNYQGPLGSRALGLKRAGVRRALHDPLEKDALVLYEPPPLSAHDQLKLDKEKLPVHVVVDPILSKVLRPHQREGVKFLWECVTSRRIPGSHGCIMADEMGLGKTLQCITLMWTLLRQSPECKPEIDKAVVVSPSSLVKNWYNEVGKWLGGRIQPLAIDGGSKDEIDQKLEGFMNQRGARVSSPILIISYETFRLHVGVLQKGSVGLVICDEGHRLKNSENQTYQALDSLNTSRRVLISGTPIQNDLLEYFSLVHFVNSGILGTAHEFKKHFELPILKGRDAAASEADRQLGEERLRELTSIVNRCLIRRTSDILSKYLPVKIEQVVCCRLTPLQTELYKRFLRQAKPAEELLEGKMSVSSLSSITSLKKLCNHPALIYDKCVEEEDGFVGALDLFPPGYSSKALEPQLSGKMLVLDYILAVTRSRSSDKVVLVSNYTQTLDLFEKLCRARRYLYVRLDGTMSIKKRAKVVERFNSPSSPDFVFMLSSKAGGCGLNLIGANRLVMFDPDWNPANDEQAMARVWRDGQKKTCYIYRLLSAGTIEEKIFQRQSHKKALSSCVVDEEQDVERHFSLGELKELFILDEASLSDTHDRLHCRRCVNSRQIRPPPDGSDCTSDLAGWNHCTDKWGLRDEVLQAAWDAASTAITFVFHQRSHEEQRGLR
Activity calls are given as the source filed them.
property: AC50

* CN1CCN(c2[nH]cnc3c4cc(F)ccc4nc2-3)CC1 | 28.8 µM (active)
* CCN(CC)CCCNc1nc(-c2ccccc2)nc2ccccc12 | 13 µM (active)
* CCOC(=O)c1cnc2c(C)cccc2c1NCCCN1CCOCC1 | 16.6 µM (active)
* COc1ccc(Nc2cc(C)nc3ccc(OC)cc23)cc1 | 20.5 µM (active)
* CC1CCN(CCCNC(=O)c2cc3c(Cl)nc4ccccc4c3s2)CC1 | 11.7 µM (active)
* CN(C)CCNC(=O)c1cccc(-c2cnc3c(NC=O)cc(-c4ccc(S(C)(=O)=O)cc4)cn23)c1 | 24.1 µM (active)
* CN1CCN(c2cc(N3CCNCC3)ccc2[N+](=O)[O-])CC1 | 14.5 µM (active)

The values you see were collected from ChEMBL document CHEMBL1201862.
